assay: bioanalysis of blood samples from in vivo efficacy studies; set-up: species or system BALB/c mice; details: BALB/c, mouse, whole blood, po, 50 mg/kg, compound 2 50mg/kg bid, 21-day study; read-out: AUC0-7h Day 1
observable: AUC(0-t) (ng·h/mL)

> print(dat)
                                itemsmiles  resultvalue
1  COc1cc(F)ccc1-c1c(C)[nH]c2nc(N)nc(C)c12         5280

====

system: wild-type T. cruzi epimastigotes; test: epimastigote drug sensitivity assay, wild-type; assay type: cell-based; conditions: Trypanosoma cruzi, read-out: EC50 wild-type
Examples of compounds with documented EC50 follow.
observable: EC50 (nM)

> print(dat)
                                   compound  resultvalue
1  COc1cc(Cl)ccc1-c1c(C)[nH]c2nc(N)nc(C)c12 [Compound 3]          4.6
2  COc1cc(F)ccc1-c1c(C)n(C)c2nc(N)nc(C)c12 [Compound 5]          2.4

====

tested on: T. cruzi epimastigotes bearing mutations in cytochrome b; experiment: epimastigote drug sensitivity assay, cytochrome b mutant / resistant lines; type: cell-based, Trypanosoma cruzi; settings: compound 5-resistant line (F222L)
observable: fold change from WT, F222L (fold)

> print(dat)
                                 itemsmiles  resultvalue
1  COc1ccc(-c2c(C)[nH]c3nc(N)nc(C)c23)c(OC)c1           73
2   COc1cc(F)ccc1-c1c(C)n(C)c2nc(N)nc(C)c12          224
3   COc1cc(F)ccc1-c1c(C)[nH]c2nc(N)nc(C)c12          109
4  COc1cc(Cl)ccc1-c1c(C)[nH]c2nc(N)nc(C)c12          183

====

test: chromatographic LogD assay; format: physicochemical; conditions: reversed phase HPLC column (Gemini NX C18), pH 7.4; read-out: Chrom logD pH 7.4

molecule	chromatographic logD
COc1ccc(-c2c(C)[nH]c3nc(N)nc(C)c23)c(OC)c1 [Compound 4]	3.1
CC[C@@H]([C@H](C)O)n1ncn(-c2ccc(N3CCN(c4ccc(OC[C@@H]5CO[C@@](Cn6cncn6)(c6ccc(F)cc6F)C5)cc4)CC3)cc2)c1=O [Posaconazole, reference compound]	6.1
COc1cc(Cl)ccc1-c1c(C)[nH]c2nc(N)nc(C)c12 [Compound 3]	4.2
COc1cc(F)ccc1-c1c(C)[nH]c2nc(N)nc(C)c12 [Compound 2]	3.4
COc1ccccc1-c1c(C)[nH]c2nc(N)nc(C)c12 [Compound 1]	3.2
O=C(Cn1ccnc1[N+](=O)[O-])NCc1ccccc1 [Benznidazole, reference compound]	2.3

====

test: FaSSIF solubility assay; assay type: physicochemical; settings: pH 6.5, 4 h
observable: FaSSIF pH 6.5

> print(dat)
                                 itemsmiles  resultvalue
1  COc1ccc(-c2c(C)[nH]c3nc(N)nc(C)c23)c(OC)c1    107 µg/mL
2  COc1cc(Cl)ccc1-c1c(C)[nH]c2nc(N)nc(C)c12     76 µg/mL
3   COc1cc(F)ccc1-c1c(C)[nH]c2nc(N)nc(C)c12    153 µg/mL
4      COc1ccccc1-c1c(C)[nH]c2nc(N)nc(C)c12    456 µg/mL
